Source: patent US11702422B2

Molecular target: IL-17A(FLAG-Tagged): IL-17RA(His-Tagged) (Homo sapiens, UniProt Q16552, K93Q)
Sequence (Q16552 with tags, fused parts or gaps K93Q): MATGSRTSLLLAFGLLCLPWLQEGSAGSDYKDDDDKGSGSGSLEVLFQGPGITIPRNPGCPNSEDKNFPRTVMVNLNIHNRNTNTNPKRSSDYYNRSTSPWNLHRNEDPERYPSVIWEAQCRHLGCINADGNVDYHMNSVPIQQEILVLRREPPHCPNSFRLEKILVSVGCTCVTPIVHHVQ
Test: IL-17A(FLAG-Tagged): IL-17RA(His-Tagged) Binding Disruption Eu-HTRF Assay
Conditions: IL-17A/IL-17RA binding disruption, simple average if tested more than once
OUTCOME MEASURE: IC50 (nM)
Entry rule: numbers only, all in nM.

So for CC(O)c1nonc1C(=O)N[C@H](c1cn2ncc([C@H](NC(=O)CC3CC(F)(F)C3)C3CC3)cc2n1)C1CCC(F)(F)CC1 (single isomer, unassigned) [Example 396] , the logged IC50 turned out to be 50

So for O=C(CCC(F)(F)F)N[C@@H](c1cnn2cc([C@@H](NC(=O)c3cncc(OC(F)F)c3)C3CCC(F)(F)CC3)nc2c1)C1CC1 , the logged IC50 turned out to be 68

So for O=C(CCC(F)(F)F)N[C@@H](c1cnn2cc([C@@H](NC(=O)c3nnn(CC4CC4)c3C(F)(F)F)C3CCC(F)(F)CC3)nc2c1)C1CC1 , the logged IC50 turned out to be 910

So for [2H]C([2H])([2H])C([2H])([2H])n1nccc1C(=O)N[C@H](c1cn2ncc(C(COCC)NC(=O)CC3CC(F)(F)C3)cc2n1)C1CCC(F)(F)CC1 (single isomer, unassigned) [Example 530] , the logged IC50 turned out to be 980

So for CC(C)c1nonc1C(=O)N[C@H](c1cn2ncc([C@H](NC(=O)CC3CC(F)(F)C3)C3CC3)cc2n1)C1CCC(F)(F)CC1 , the logged IC50 turned out to be 24

So for O=C(CCC(F)(F)F)N[C@@H](c1cnn2cc([C@@H](NC(=O)c3ncnn3CC(F)(F)F)C3CCC(F)(F)CC3)nc2c1)C1CC1 , the logged IC50 turned out to be 190

So for [2H]C([2H])([2H])n1nccc1C(=O)N[C@H](c1cn2ncc([C@H](NC(=O)C[C@H](C)C(F)(F)F)C3CCC3)cc2n1)C1CCC(F)(F)CC1 (relative stereo) , the logged IC50 turned out to be 100

So for CC(C)Oc1cc(C(=O)N[C@H](c2cn3ncc([C@H](NC(=O)CCC(F)(F)F)C4CC4)cc3n2)C2CCC(F)(F)CC2)ccn1 , the logged IC50 turned out to be 80

So for N#CC1([C@@H](NC(=O)C[C@H]2CC2(F)F)c2cnn3cc([C@@H](NC(=O)c4nonc4C4CC4)C4CCC(F)(F)CC4)nc3c2)CCC1 (relative stereo) [Example 449] , the logged IC50 turned out to be 28

So for CC(C)n1nccc1C(=O)N[C@H](c1cn2ncc(C(NC(=O)CCC(F)F)C3CC3)cc2n1)C1CCC(F)(F)CC1 (single isomer, unassigned) , the logged IC50 turned out to be 110

So for N#Cc1ccnc(C(=O)N[C@H](c2cn3ncc([C@H](NC(=O)CCC(F)(F)F)C4CC4)cc3n2)C2CCC(F)(F)CC2)c1 , the logged IC50 turned out to be 1600
